system: Tobacco mosaic virus; assay: Induction of systemic acquired resistance against Tobacco mosaic virus (TMV) in tobacco plants exposed to 50 ug/mL compound through leaf spray followed by 7 days culture under green house conditions assessed as inhibition of viral growth in leaves infected with Tobacco mosaic virus (TMV) measured 72 hr post viral infection by half-leaf juice rubbing method; assay type: functional; set-up: scale not given: the % may be the effect or the level left
property-label: Activity
Phrase the answer as number then unit, nothing more needed.

Challenge: Query: Activity; subject: Cc1nnsc1C(=O)Nc1nc(-c2ccccc2)cs1
Response given: 74%

Challenge: Note, next up: O=C(O)c1cccc2nnsc12
Response given: 3%

Challenge: Note, next up: Cc1ccc(NC(=O)c2snnc2C)cc1Cl
Response given: 63%

Challenge: Note, next up: CC(N)CC(=O)O (configuration not stated)
Response given: 0%

Challenge: Note, next up: CSC(=O)c1cccc2nnsc12
Response given: 92%

Challenge: Note, next up: Cc1csc(NC(=O)c2snnc2C)n1
Response given: 81%

Challenge: Note, next up: COc1ccc(-c2nnc(-c3snnc3C)o2)cc1
Response given: 78%

====

What growth inhibition (GI) was measured for each of the following?
system: Tobacco mosaic virus; assay: In vivo antiviral activity against Tobacco mosaic virus (TMV) infected tobacco leaves exposed to 500 ug/mL for 20 min assessed as inhibition of viral growth measured 72 hr post compound treatment compound by half-leaf juice rubbing method; type: functional
Give just the number in %; leave the unit off.

Challenge: Look up growth inhibition (GI) with Tobacco mosaic virus for this molecule: Cc1ccc(NC(=O)c2snnc2C)cc1Cl [TIADINIL]
Response given: 0

Challenge: Note, next up: CSC(=O)c1cccc2nnsc12 [ACIBENZOLAR-S-METHYL]
Response given: 8

Challenge: Note, next up: O=C1NCNC(=O)N1
Response given: 42

Challenge: Note, next up: CC(N)CC(=O)O (stereo not given)
Response given: 5

Challenge: Note, next up: O=C(O)c1cccc2nnsc12
Response given: 5

====

test system: Tobacco mosaic virus; assay: Induction of systemic acquired resistance against Tobacco mosaic virus (TMV) in tobacco plants exposed to 500 ug/mL compound through leaf spray followed by 7 days culture under green house conditions assessed as inhibition of viral growth in leaves infected with Tobacco mosaic virus (TMV) measured 72 hr post viral infection by half-leaf juice rubbing method; assay type: functional; design: scale not given: the % may be the effect or the level left
property-label: Activity (%)
Give just the number in %; leave the unit off.

Challenge: Query: Activity; subject: CCCc1c(-c2nnc(-c3snnc3C)o2)cnn1-c1ccc(Cl)cc1
Response given: 0

Challenge: Note, next up: Cc1nnsc1-c1nnc(/C=C/c2ccccc2)o1
Response given: 0

Challenge: Note, next up: Cc1nnsc1C(=O)Nc1nc(-c2ccc([N+](=O)[O-])cc2)cs1
Response given: 0

Challenge: Note, next up: CC(N)CC(=O)O (stereo not drawn)
Response given: 50

Challenge: Note, next up: Cc1ccc(-c2nnc(-c3snnc3C)o2)cc1
Response given: 0

Challenge: Note, next up: O=C1NCNC(=O)N1
Response given: 5

Challenge: Note, next up: CSC(=O)c1cccc2nnsc12
Response given: 95

Challenge: Note, next up: Cc1nn(-c2ccccc2)nc1-c1nnc(-c2snnc2C)o1
Response given: 10

====

system: Tobacco mosaic virus; test: Induction of systemic acquired resistance against Tobacco mosaic virus (TMV) in tobacco plants exposed to 500 ug/mL compound through leaf spray followed by 7 days culture under green house conditions assessed as inhibition of viral growth in leaves infected with Tobacco mosaic virus (TMV) measured 72 hr post viral infection by half-leaf juice rubbing method; assay type: functional; set-up: scale not given: the % may be the effect or the level left
The source made the active and inactive calls. The rule behind the calls is not given here.
property-label: Activity

Example results:
Cc1nnsc1-c1nnc(-c2snnc2C)o1 | 0%
COc1ccc(-c2nnc(-c3snnc3C)o2)cc1 | 80%
Cc1ccc(NC(=O)c2snnc2C)cc1Cl | 40%
Cc1nnsc1-c1nnc(-c2ccc(=O)[nH]c2)o1 | inactive
Cc1ccc(-c2nnc(-c3snnc3C)o2)s1 | inactive
O=C(O)c1cccc2nnsc12 | 5%

Shift focus to the following entry.
Challenge: Query: Activity; subject: Cc1ccc(-c2nnc(-c3snnc3C)o2)c(Cl)n1
Response given: 30%

====

tested on: Alternaria mali; assay: Antifungal activity against Alternaria mali assessed as growth inhibition at 50 ug/mL measured after 2 days post dose; format: functional; conditions: 48 h, read-out: GI
property-label: inhibition of growth at 50 µg/mL (%)
Give just the number in %; leave the unit off.

Challenge: Look up inhibition of growth at 50 µg/mL with Alternaria mali for this compound: Cc1ccc(-c2nnc(-c3snnc3C)o2)c(Cl)n1
Response given: 24.1

Challenge: Note, next up: COc1ccc(-c2csc(NC(=O)c3snnc3C)n2)cc1
Response given: 15.5

Challenge: Note, next up: Cc1nn(-c2ccccc2)nc1-c1nnc(-c2snnc2C)o1
Response given: 31

Challenge: Note, next up: Cc1nnsc1-c1nnc(/C=C/c2ccccc2)o1
Response given: 0

Challenge: Note, next up: CCCc1c(-c2nnc(-c3snnc3C)o2)cnn1-c1ccc(Cl)cc1
Response given: 27.6

Challenge: Note, next up: Cc1ccc(NC(=O)c2snnc2C)cc1Cl [TIADINIL]
Response given: 32.1

Challenge: Note, next up: CCCc1sc(NC(=O)c2snnc2C)nc1-c1ccc(Cl)cc1Cl
Response given: 6.9

Challenge: Note, next up: Cc1nnsc1C(=O)Nc1nc(-c2ccc(Cl)cc2)cs1
Response given: 15

Challenge: Note, next up: CCc1sc(NC(=O)c2snnc2C)nc1-c1ccc(Cl)cc1Cl
Response given: 35

Challenge: Note, next up: Cc1nnsc1C(=O)Nc1nc(-c2ccccc2)cs1
Response given: 10

Challenge: Note, next up: Cc1nnsc1-c1nnc(-c2snnc2C)o1
Response given: 0

Challenge: Note, next up: Cc1csc(NC(=O)c2snnc2C)n1
Response given: 50

====

test system: Puccinia triticina; assay: Antifungal activity against Puccinia triticina inoculated on 500 ug/mL compound pre-treated wheat plants with 3 to 5 leaves assessed as growth inhibition; format: functional
property-label: growth inhibition (GI)

Challenge: Look up growth inhibition (GI) with Puccinia triticina for this compound: Cc1ccc(-c2nnc(-c3snnc3C)o2)s1
Response given: 0%

Challenge: Note, next up: Cc1nn(-c2ccccc2)nc1-c1nnc(-c2snnc2C)o1
Response given: 0%

Challenge: Note, next up: Cc1nnsc1-c1nnc(-c2ccco2)o1
Response given: 0%

Challenge: Note, next up: Cc1nnsc1-c1nnc(-c2snnc2C)o1
Response given: 28%

Challenge: Note, next up: Cc1ccc(-c2nnc(-c3snnc3C)o2)c(Cl)n1
Response given: 17%

Challenge: Note, next up: COc1ccc(-c2csc(NC(=O)c3snnc3C)n2)cc1
Response given: 45%

Challenge: Note, next up: CCCc1c(-c2nnc(-c3snnc3C)o2)cnn1-c1ccc(Cl)cc1
Response given: 0%

Challenge: Note, next up: COc1ccc(-c2nnc(-c3snnc3C)o2)cc1
Response given: 0%

Challenge: Note, next up: CSC(=O)c1cccc2nnsc12
Response given: 0%

Challenge: Note, next up: CCc1cc(-c2nnc(-c3snnc3C)o2)nn1C
Response given: 20%

Challenge: Note, next up: Cc1ccc(NC(=O)c2snnc2C)cc1Cl
Response given: 40%

====

What inhibition of growth at 50 µg/mL was measured for each of the following?
system: Colletotrichum lagenaria; assay: Antifungal activity against Colletotrichum lagenaria assessed as growth inhibition at 50 ug/mL measured after 2 days post dose; format: functional; conditions: 48 h, read-out: GI
Give just the number in %; leave the unit off.

Challenge: Query: inhibition of growth at 50 µg/mL; subject: CCc1cnc(NC(=O)c2snnc2C)s1
Response given: 26.7

Challenge: Note, next up: CCc1sc(NC(=O)c2snnc2C)nc1-c1ccc(Cl)cc1Cl
Response given: 26.7

Challenge: Note, next up: Cc1nnsc1C(=O)Nc1nc(-c2ccccc2)cs1
Response given: 6.7

Challenge: Note, next up: Cc1nnsc1C(=O)Nc1nc(-c2ccc(Cl)cc2)cs1
Response given: 13.3

Challenge: Note, next up: Cc1ccc(NC(=O)c2snnc2C)cc1Cl
Response given: 22.8

Challenge: Note, next up: CCCCCCc1cnc(NC(=O)c2snnc2C)s1
Response given: 26.7

Challenge: Note, next up: COc1ccc(-c2csc(NC(=O)c3snnc3C)n2)cc1
Response given: 5.9

Challenge: Note, next up: Cc1csc(NC(=O)c2snnc2C)n1
Response given: 17.6

Challenge: Note, next up: Cc1nnsc1C(=O)Nc1nc(-c2ccc([N+](=O)[O-])cc2)cs1
Response given: 17.6

Challenge: Note, next up: CCCc1sc(NC(=O)c2snnc2C)nc1-c1ccc(Cl)cc1Cl
Response given: 11.8

====

tested on: Puccinia triticina; assay: Antifungal activity against Puccinia triticina inoculated on 500 ug/mL compound pre-treated wheat plants with 3 to 5 leaves assessed as growth inhibition; assay type: functional
Active and inactive are the calls of the source. No cut-off for these calls is given here.
property-label: growth inhibition (GI)

Example results:
COc1cccc(-c2nnc(-c3snnc3C)o2)c1 | 39%
Cc1ccc(-c2nnc(-c3snnc3C)o2)cc1 | 11%
Cc1nnsc1-c1nnc(-c2ccc(=O)[nH]c2)o1 | inactive
Cc1nnsc1C(=O)Nc1nc(-c2ccccc2)cs1 | 0%
CCc1sc(NC(=O)c2snnc2C)nc1-c1ccc(Cl)cc1Cl | 0%

Challenge: Query: growth inhibition (GI); subject: Cc1nnsc1C(=O)Nc1nc(-c2ccc(Cl)cc2)cs1
Response given: 0%

Challenge: Note, next up: Cc1cccc(-c2nnc(-c3snnc3C)o2)c1
Response given: 98%

Challenge: Note, next up: Cc1nnsc1C(=O)Nc1nc(-c2ccc([N+](=O)[O-])cc2)cs1
Response given: inactive

Challenge: Note, next up: CCCc1sc(NC(=O)c2snnc2C)nc1-c1ccc(Cl)cc1Cl
Response given: 30%

Challenge: Note, next up: Cc1nnsc1-c1nnc(/C=C/c2ccccc2)o1
Response given: 20%

Challenge: Note, next up: CCCCCCCc1nnc(-c2snnc2C)o1
Response given: 83%
